Tested on: SF-295 CNS
experimental protocol: NCI-60 one-dose screen, 48 h
condition label: 10 µM unless noted
About 83,000 compounds went through this panel and 20% of them were active in at least one assay; those are over-represented in the sample as a whole. The source made the active and inactive calls. How the source made its calls: active means growth percent below 10; inactive means the rest.
Returns: one label drawn from Y = active, N = inactive

Check the results log: what was the call for COc1ccc(/C=N/NC(=O)c2cnn(CC(O)Cc3ccccc3)c2N)cc1OC1CCCC1 (stereo unspecified) ?
N

Query `COc1ccc(-n2c(SCc3cc(OC)c(OC)c(OC)c3)nc3ccc(C)cc3c2=O)c(OC)c1` next
Y

Query C=C(C)COC(=O)c1ccccc1C(=O)OCC1(C)CO1 (stereo unspecified) next
N

Query CCCCC1COc2cccc3c(SCC(=O)N(C)c4cccc5ccccc45)cc[n+]1c23 (stereo unspecified) next
N

Query `O=C(CCc1nnc2sc(/C=C\c3ccccc3)nn12)c1nc2ccccc2[nH]1` next
N

Query O=C1NC(=O)C2(CCCC2C(=O)O)N1 (stereo unspecified) next
N

Query `NC(=O)c1cc(I)ccc1NC(=O)COc1ccccc1` next
N

Query `Cc1cc(Cl)c2c(Cl)ccc(Cl)c2n1` next
N

Query CCOC(=O)c1cnn(CC(O)c2ccc(F)cc2)c1NC(=O)Nc1ccccc1F (stereo unspecified) next
N

Query `COc1cccc(OC)c1OC(=O)c1ccccc1` next
N

Query `ONc1nc(NO)c2[nH]cnc2n1` next
N
